Each entry below carries its reported IC50.
- system.name: human C5aR(CD88) (Homo sapiens, UniProt P21730)
- Construct: expressed in transfected cells; host or cells: rat basophilic leukemia cells (RBL)
- Sequence (P21730 whole entry): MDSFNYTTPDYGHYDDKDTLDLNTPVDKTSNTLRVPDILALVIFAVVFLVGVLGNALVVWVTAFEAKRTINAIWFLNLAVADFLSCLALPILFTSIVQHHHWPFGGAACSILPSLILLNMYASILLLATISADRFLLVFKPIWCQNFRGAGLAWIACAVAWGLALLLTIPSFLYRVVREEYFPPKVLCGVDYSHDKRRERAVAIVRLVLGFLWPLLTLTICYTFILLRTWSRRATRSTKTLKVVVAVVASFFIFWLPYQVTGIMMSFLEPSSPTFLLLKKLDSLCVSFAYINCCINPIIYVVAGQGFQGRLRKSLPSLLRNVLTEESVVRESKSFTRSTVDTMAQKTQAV
- experiment.summary: Determination of the IC50 value in an enzyme release assay (functional assay, antagonistic activity)
- Assay type: cell-based
- test.parameters: antagonistic activity; IC50 group in enzyme release assay, RBL cells expressing human C5aR(CD88); read-out: activity (group)
Positions of bridges follow the written chain, without caps; N, C: chain ends. Non-standard residues stand in square brackets, D forms with d. Residues, ends and D or L forms follow the SMILES beside them. Gly(N-(CH2)3N-pyrrolidone) = O=C(O)CNCCCN1CCCC1=O; Bta = N[C@@H](Cc1csc2ccccc12)C(=O)O; dCha = N[C@H](CC1CCCCC1)C(=O)O; Nle = CCCC[C@H](N)C(=O)O; Orn = NCCC[C@H](N)C(=O)O; Dab = NCC[C@H](N)C(=O)O

{"compound": "CC(=O)N[C@@H](Cc1ccccc1)C(=O)N[C@@H](CCN)C(=O)N1CCC[C@H]1C(=O)N[C@H](CC1CCCCC1)C(=O)N[C@@H](Cc1csc2ccccc12)C(=O)N[C@@H](Cc1ccccc1)C(N)=O [Compound 215, Ac-Phe-Dab-Pro-cha-Bta-Phe-NH2] (Ac-F[Dab]P[dCha][Bta]F-NH2)", "system.name": "human C5aR(CD88) (Homo sapiens, UniProt P21730)", "IC50": "10 to 20 nM"}
{"compound": "CCCC[C@@H]1NC(=O)[C@H](Cc2c[nH]c3ccccc23)NC(=O)[C@@H](CC2CCCCC2)NC(=O)[C@H](CO)NC(=O)[C@@H](NC(=O)[C@H](Cc2ccccc2)NC(C)=O)CCCNC1=O [Compound 200, Ac-Phe-[Orn-Ser-cha-Trp-Nle]] (Ac-F[Orn]S[dCha]W[Nle]; lactam 2-C)", "system.name": "human C5aR(CD88) (Homo sapiens, UniProt P21730)", "IC50": "50 to 200 nM"}
{"compound": "CC(=O)N[C@@H](Cc1ccccc1)C(=O)N[C@@H](CCCN)C(=O)N(CCCN1CCCC1=O)CC(=O)N[C@H](CC1CCCCC1)C(=O)N[C@@H](Cc1csc2ccccc12)C(=O)N[C@@H](Cc1ccccc1)C(N)=O [Compound 241, Ac-Phe-Orn-G30-cha-Bta-Phe-NH2] (Ac-F[Orn][Gly(N-(CH2)3N-pyrrolidone)][dCha][Bta]F-NH2)", "system.name": "human C5aR(CD88) (Homo sapiens, UniProt P21730)", "IC50": "50 to 200 nM"}
